Record form. Attribute: Tm. Fill in for each entry.
# run.description: melting temperature; fluorescence melt of hairpins on a sequencing array, two-state fit, raised by 9.35 °C to match UV melts
# assay.context: sodium 0.088 M
Numeric answer only, unit °C assumed.

# sequence GATCTGAAGTCAGATC ((((((....)))))) ; its Tm = 47.7

# sequence GCTGTCGGAAACGGTAGC (((..((....))..))) ; its Tm = 41.8

# sequence GCTGATGGAAACGTTAGC (((.(.(....).).))) ; its Tm = 27.8

# sequence GATAGCGAAAGCTGTATC ((((((....)))..))) ; its Tm = 31.9

# sequence GAGAAGCGAAAGCTCCTC (((.(((....))).))) ; its Tm = 45.1

# sequence GATCTATGCCTAGATC ((((((....)))))) ; its Tm = 41

# sequence GGCTGTGGAAACATAGCC ((((.((....)).)))) ; its Tm = 53.5

# sequence GTGCTAGAAATAGCAC ((((((....)))))) ; its Tm = 56.5

# sequence GCAAAGCGAAAGCTTAGC ((.((((....)))).)) ; its Tm = 57.2

# sequence GATCACCATAGTGATC ((((((....)))))) ; its Tm = 58.5

# sequence GTGCACGAAAGTGTCAC ((((((....))).))) ; its Tm = 54.5

# sequence GTGAACGGAAACGTTTGC (..((((....))))..) ; its Tm = 38.9

# sequence GGGAAGGGAAACCTCCCC (((.(((....))).))) ; its Tm = 45.2

# sequence GATTAGCGAAAGCTTATC (((.(((....))).))) ; its Tm = 39.1

# sequence GTGTCCGAAAGGAGACAC ((((((....)))..))) ; its Tm = 50.7

# sequence GTATACCCGAAAGGGTAC (((..(((....)))))) ; its Tm = 32.4

# sequence GATTACGGAAACGTAATC (((((((....))))))) ; its Tm = 55.5

# sequence GCTCTTGGAAACAAGAGC (((((((....))))))) ; its Tm = 63.2

# sequence GGAGACCGAAAGGTTCC (((.(((....)))))) ; its Tm = 48

# sequence GATCCGTGGTCGGATC ((((((....)))))) ; its Tm = 58.7

# sequence GTCTGTGGAAACACAGAC (((((((....))))))) ; its Tm = 65.1

# sequence GCGAAGCGAAAGCCTAGC ((.(.((....)).).)) ; its Tm = 40.2

# sequence GCAGCCGAAAGGCAGTGC ((((((....)))..))) ; its Tm = 50.6

# sequence GACGCAGCGAAAGCTGTC (((..(((....)))))) ; its Tm = 33.5

# sequence GACGACGAAAGTCATGTC ((((((....)))..))) ; its Tm = 40.3

====

# run.description: melting temperature; fluorescence melt of hairpins on a sequencing array, two-state fit, raised by 9.35 °C to match UV melts
# assay.context: sodium 0.088 M
Entry class follows Tm: Low (below 40 °C), Medium (40 °C to below 50 °C), High (50 °C or more)

Input: Which bin should I file CGTGCCGGAAACGGAACG (((.(((....))).))) under?
Output: High

Input: Which bin should I file GCCAGCGAAAGCTATGGC ((((((....)))..))) under?
Output: High

Input: Which bin should I file GATCTTTGTAAGATC ((((((...)))))) under?
Output: Medium

Input: Which bin should I file GCTTGGCGAAAGCCGCGC ((..(((....)))..)) under?
Output: High

Input: Which bin should I file GCTATGCGAAAGCAAGC (((.(((....)))))) under?
Output: High

Input: Which bin should I file GTGCGGGGAAACTCGCAC (((((.(....).))))) under?
Output: High

Input: Which bin should I file GCTCTACCGAAAGGTAGC (((..(((....)))))) under?
Output: Low

Input: Which bin should I file GCGCACGAAAGTGGTCGC ((((((....)))..))) under?
Output: High

Input: Which bin should I file GCAGATTCGAAAGAATGC (((..(((....)))))) under?
Output: Low

Input: Which bin should I file GCGCTGCGAAAGCAAGGC ((..(((....)))..)) under?
Output: Medium

Input: Which bin should I file GCAACCGAAAGGTAATGC ((((((....)))..))) under?
Output: Low

Input: Which bin should I file GACCATGGAAACGTGGTC (((((.(....).))))) under?
Output: High

Input: Which bin should I file GTCTCCGAAAGGACTGAC ((((((....)))..))) under?
Output: Low

Input: Which bin should I file GTCCTGCGAAAGCAAGAC (((.(((....))).))) under?
Output: Medium

Input: Which bin should I file GTCCCAACGAAAGTTGAC (((..(((....)))))) under?
Output: Low

Input: Which bin should I file GCAGACCGAAAGGTTGC (((.(((....)))))) under?
Output: High

Input: Which bin should I file GTACACGAAAGTGGTAC ((((((....))).))) under?
Output: Medium

Input: Which bin should I file GCACTGCGAAAGCACCGC ((..(((....)))..)) under?
Output: Low

Input: Which bin should I file GTGACCGAAAGGTACCAC ((((((....)))..))) under?
Output: Low

Input: Which bin should I file GATTACCGAAAGGTTATC (((.(((....))).))) under?
Output: Medium

Input: Which bin should I file GATGCGCGAAAGCGTATC (((.(((....))).))) under?
Output: High

Input: Which bin should I file GTCAGTCGAAAGACCGAC (((.(((....))).))) under?
Output: Medium

Input: Which bin should I file GTCCCTGGAAACAGGGGC (.(((((....))))).) under?
Output: High

Input: Which bin should I file GGGCAGGGAAACCTGTCC ((.((((....)))).)) under?
Output: High

Input: Which bin should I file CGACCGGAAACGGTATCG ((((((....)))..))) under?
Output: Low

Input: Which bin should I file GCAAAGCGAAAGCACTGC (((..((....))..))) under?
Output: Low

Input: Which bin should I file GACTGGGGAAACCCGGTC (((.(((....))).))) under?
Output: High

Input: Which bin should I file GTTAGCGCGAAAGCGAAC (((..(((....)))))) under?
Output: Low

Input: Which bin should I file GTACCAGAAATGGTAC ((((((....)))))) under?
Output: High

Input: Which bin should I file GCCCCGCGAAAGCCGTGC ((.(.((....)).).)) under?
Output: Low

Input: Which bin should I file GCGATGGGAAACCGTTGC ((.(.((....)).).)) under?
Output: Medium

Input: Which bin should I file GCGACCGAAAGGTTCGC ((((((....))).))) under?
Output: High

Input: Which bin should I file TCTTGGAAACAAGA (((((....))))) under?
Output: Low

Input: Which bin should I file GTCACCCGAAAGGGAGAC (((.(((....))).))) under?
Output: High

Input: Which bin should I file GTCCCCGAAAGGGAGAC ((((((....))).))) under?
Output: High

Input: Which bin should I file GTGGCAACGAAAGTTCAC (((..(((....)))))) under?
Output: Low

Input: Which bin should I file GGTAACGAAAGTTGAACC ((((((....)))..))) under?
Output: Low

Input: Which bin should I file GCAGGTCGAAAGACGTGC (((.(((....))).))) under?
Output: High

Input: Which bin should I file GTGACCGAAAGGTCGCAC ((((((....)))..))) under?
Output: High

Input: Which bin should I file GCTGTCCGAAAGGAGAGC (((.(((....))).))) under?
Output: High

Input: Which bin should I file GGGAACGAAAGTTACCC ((((((....))).))) under?
Output: High

Input: Which bin should I file GTCCGCGAAAGCGTTGAC ((((((....)))..))) under?
Output: Low

Input: Which bin should I file GAAGCCGGAAACGGCTCC (.(((((....))))).) under?
Output: Medium

Input: Which bin should I file GGACACGGAAACATGTCC (((((.(....).))))) under?
Output: Medium
